Catalogue of pIC50 values
# System: Influenza A virus
# Format: functional, organism-based, Influenza A virus (A/Texas/12/2007(H3N2))
# Run parameters: mdck
pIC50: −log10 of the molar value.
Recorded metric: pIC50

> print(dat)
                                   compound  recorded.metric  measured.value
1  CCOC(=O)C1=C[C@@H](OC(CC)CC)[C@H](NC(C)=O)[C@@H](N)C1            pIC50            8.09
2  CCC(CC)[C@H](NC(C)=O)[C@@H]1[C@H](O)[C@@H](C(=O)O)C[C@H]1NC(=N)N [PERAMIVIR ANHYDROUS]            pIC50            9.29
3  CC(=O)N[C@H]1[C@H]([C@H](O)[C@H](O)CO)OC(C(=O)O)=C[C@@H]1NC(=N)N            pIC50            8.81
4  C/C=C\[C@@H]1C[C@H](C(=O)O)N[C@H]1[C@@H](NC(C)=O)[C@](C)(CCC)OC            pIC50            8.87

----------
Catalogue of IC50 values
# Tested on: Influenza A virus
# Assay type: functional, organism-based, Influenza A virus (A/Texas/12/2007(H3N2))
# Run parameters: mdck
Recorded metric: IC50 (nM)

> print(dat)
                                   compound  recorded.metric  units.text  measured.value
1  C/C=C\[C@@H]1C[C@H](C(=O)O)N[C@H]1[C@@H](NC(C)=O)[C@](C)(CCC)OC             IC50          nM            23.9
2  CCOC(=O)C1=C[C@@H](OC(CC)CC)[C@H](NC(C)=O)[C@@H](N)C1             IC50          nM             431
3  CCC(CC)[C@H](NC(C)=O)[C@@H]1[C@H](O)[C@@H](C(=O)O)C[C@H]1NC(=N)N [PERAMIVIR ANHYDROUS]             IC50          nM             214
4  CC(=O)N[C@H]1[C@H]([C@H](O)[C@H](O)CO)OC(C(=O)O)=C[C@@H]1NC(=N)N             IC50          nM            18.6

Origin of the recorded values: ChEMBL document CHEMBL1255450
